- run-description: xn = mol fraction of the nth substance listed
- settings: 288.15 K; 100.5 kPa; Liquid; Capillary tube (Ostwald / Ubbelohde) method; x1 = 0.25
Checkbox rule: viscosity lower than 1 mPa·s = y; viscosity not lower than 1 mPa·s = n.

>>> qualitative_label("CCOC(=O)CC(C)=O [ethyl 3-oxobutanoate] + CCO")
"n"
>>> qualitative_label("CCC(=O)OCc1ccccc1 [benzyl propanoate] + CCO")
"n"
>>> qualitative_label("CCOC(=O)CC(C)C [ethyl 3-methylbutanoate] + CCO")
"y"
>>> qualitative_label("CC(=O)OCc1ccccc1 [benzyl ethanoate] + CCO")
"n"

Q) Problem: For the compound COC(=O)c1ccccc1 [methyl benzoate] + CCO , is viscosity under 1 mPa·s?
A) n
